test system: Rhodopirellula baltica RbMPO, wild type, SEQ ID NO: 1; assay: Pre-steady-state kinetics: compound I formation and return to native state (stopped-flow, 412 nm); assay type: biochemical; details: wt RbMPO […], H2O2 20 μM, 37° C., pH7.5
test readout: Vreturn (Sreturn/[enzyme]) (s⁻¹)
Unit s⁻¹ implied. Number only.

Example cases with answers are listed next.
>  <smiles notation>
N#C[S-].[Na+]

>  <reported>
13.65

$$$$
>  <smiles notation>
[Cl-].[Na+]

>  <reported>
1.37

$$$$

Query :: Suppose we examine the compound `[Br-].[Na+]` ; what Vreturn (Sreturn/[enzyme]) value has been reported?
Result :: 11.11

Query :: Lookup `I`
Result :: 16.66
